assayedTarget: rBmLDH (Babesia microti, UniProt I7J7V6)
Sequence (I7J7V6 1-332): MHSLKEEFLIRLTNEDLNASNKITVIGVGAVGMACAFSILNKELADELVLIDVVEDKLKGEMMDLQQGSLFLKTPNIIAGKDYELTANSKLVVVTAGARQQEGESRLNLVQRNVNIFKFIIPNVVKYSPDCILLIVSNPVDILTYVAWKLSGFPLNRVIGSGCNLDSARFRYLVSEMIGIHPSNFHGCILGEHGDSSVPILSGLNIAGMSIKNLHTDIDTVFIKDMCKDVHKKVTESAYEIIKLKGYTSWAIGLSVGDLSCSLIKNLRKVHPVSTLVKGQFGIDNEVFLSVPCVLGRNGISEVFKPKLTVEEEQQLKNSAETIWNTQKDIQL
testSummary: biochemical
Type: biochemical
parameterMeasured: effect on rBmLDH / LDH reaction activity

Answered cases to consult:
CC(C)=CC[C@@H](O)C1=CC(=O)c2c(O)ccc(O)c2C1=O [Shikonin] ... did not affect
O=c1cc(-c2ccccc2)oc2ccccc12 [Flavone] ... no effect
O=c1cc(-c2ccc(O)cc2)oc2cc(O)cc(O)c12 [Apigenin] ... did not affect
CCc1ccc(CCOc2ccc(CC3SC(=O)NC3=O)cc2)nc1 (stereo not shown) [Pioglitazone] ... did not affect
CC(C)=CCC1=C(O)C(=O)c2ccccc2C1=O [Lapachol] ... no effect

Now, please, on to the next compound.
Recorded effect on rBmLDH / LDH reaction activity for CC1=C(CSC(=S)N2CCCCC2)C(=O)c2ccccc2C1=O [PKM2 inhibitor] , please?
did not affect
